System: NCI/ADR-RES
Assay: NCI tumour cell line growth inhibition, 48 h
Active and inactive are the calls of the source. No stated cut-off is given here; in the data, active = GI50 up to about 1.1 µM and inactive = higher.
The reply should be one of these categories: active, inactive

Look over these answered cases.
>  <compound>
C[C@H](CCC(=O)O)[C@H]1CC[C@H]2[C@@H]3[C@H](O)C[C@@H]4C[C@H](O)CC[C@]4(C)[C@H]3CC[C@]12C

>  <classification>
inactive

$$$$
>  <compound>
CCOC(=O)/C=C(/C(=O)OCC)n1ccc(=O)[nH]c1=O

>  <classification>
inactive

$$$$

Q: Recorded call for CSc1nc(-c2ccccc2)nc(C(C#N)C#N)n1 ?
A: inactive

Q: Would you kindly repeat that for COc1cc(/C=N/c2nc3cc4sc(/N=C/c5cc(OC)c(OC)c(OC)c5)nc4cc3s2)cc(OC)c1OC ?
A: inactive

Q: Field entry: CCC1(OC(=O)CNC)C(=O)OCc2c1cc1n(c2=O)Cc2cc3ccccc3nc2-1 (stereo unspecified)
A: active

Q: Now this one: O=C(C(Cl)=C(N1CCCCC1)N1CCCCC1)C(Cl)Cl
A: inactive

Q: # iterate: Cc1[nH]nc(-c2ccon2)c1N=O
A: inactive

Q: Do the same for CCCCCCCC/C=C\CCCCCCC/C=C1/C[C@](/C=C/C(=O)OC)(CO)OC1=O please
A: inactive
